Where do these numbers come from? They come from the RNAGym collection of RNA variant scans (doi:10.1021/acssynbio.7b00057).

B1: Pistol ribozyme (parent)
chain: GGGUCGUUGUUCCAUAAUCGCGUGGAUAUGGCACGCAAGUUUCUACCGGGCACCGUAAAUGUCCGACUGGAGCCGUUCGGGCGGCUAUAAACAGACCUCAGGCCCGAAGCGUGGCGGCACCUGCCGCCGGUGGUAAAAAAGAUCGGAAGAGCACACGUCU

Variants of: B1
Assay: aptazyme ON/OFF ratio, guanine; higher = stronger switching; co-transcriptional cleavage with and without guanine
Hi there, I'd appreciate the recorded aptazyme ON/OFF ratio for every entry that follows.
Answers are plain numbers.

Entry under test: U8C G9U U10A U11C C12A . Its aptazyme ON/OFF ratio was 1.37

Entry under test: U7G U8G G9A U10A C12G . Its aptazyme ON/OFF ratio was 1.5

Entry under test: U7C U8G G9U U10G U11G C12A C13A . Its aptazyme ON/OFF ratio was 1.1

Entry under test: U7C U8C G9C U10G U11G C13G . Its aptazyme ON/OFF ratio was 1.08

Entry under test: U7C U8C U10C U11C C12U . Its aptazyme ON/OFF ratio was 1.26

For every item in the list below, what is its measured aptazyme ON/OFF ratio?
1. U7G U8A U10A U11C C12G C13A
2. G9C U10G U11G C12A C13G
3. U7G U8G G9U U10C C12A C13U
4. U7A U8A G9C U10G U11C C12A C13A
5. U7G U8A G9U U11A C13U
6. U7A G9U U10G U11G C12U
7. U7G U8A G9U U10G U11A C12A

Ans:
1: 1.28; 2: 1.12; 3: 1.4; 4: 1.19; 5: 1.11; 6: 1.16; 7: 1.09

For every item in the list below, what is its measured aptazyme ON/OFF ratio?
1. U7A U8G U10G C12G C13A
2. U7C G9A U11C C12A C13G
3. U7C U8C G9A U10G U11G C12U C13A
4. U7G U8G G9A U11G C12G C13U
5. U7C U8C G9A U10A U11A C12G
6. U7C G9C U10C C12A C13A

Ans:
1.26
1.12
1.1
1.23
1.33
1.06
